Target: T1, PDZRN3_1, Q9UPQ7
T1 sequence (Q9UPQ7 244-349, limits assumed, looked up): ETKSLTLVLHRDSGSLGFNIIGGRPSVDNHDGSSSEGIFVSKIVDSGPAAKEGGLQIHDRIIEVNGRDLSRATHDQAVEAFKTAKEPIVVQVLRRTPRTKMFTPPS
Assay: holdup assay
Parameters: key: below the threshold = too weak to quantify, mostly under pKd 3.1 to 4
Conditions: plain residues with an end cap or a label only (N-terminal biotin on a linker: ttds)
metric_name: pKd
Give bare numbers.

RPLPRKVSQL [DOCK4, Q8N1I0]	3.64
PVRVCEETSL [OTULIN, Q96BN8]	4.99
QRQARSETLV [HPV59-E6, Q81964]	4.22
RLPKIKETTV [FRMPD4, Q14CM0]	4.47
RLQRRRETQV [HPV18-E6, P06463]	4.82
SKPTRRETEV [HPV35-E6, P27228]	4.89
RHTTSTETAV [HPV30-E6, P36809]	4.68
NDPAWDETNL [ARHGEF7, Q14155;Q14155-1]	3.92
KKYVDAETSL [SLC4A7, Q9Y6M7]	4.57
DKDPHSETAL [TMIGD1, Q6UXZ0]	4.64

Each binder below has a reported value. Please supply its pKd.
1. SSLQSLETSV [ATP2B4, P23634]
2. FHPLGADSQV [SLC2A1, P11166]
3. EVVHTPETSV [SLC16A3, O15427]
4. EMDRRPATVV [PLCB4, Q15147]

5.15
3.53
4.42
4.08

Please give measured pKd of the following entry: VDFPPKESSL [ACVR2A, P27037]
4.76
